system: beta-galactosidase negative Salmonella enteritidis (RKI 05/07992); type: cell-based; conditions: S. enteritidis (b-gal negative), 24 h, 150 mg/l substrate and 100 mg/l IPTG; note: key: −: absent; +/−: weak; +: strong; ++: very strong
REPORTED PROPERTY: C: Color of colonies (strength)

> print(dat)
                                   compound                reported.property  result.value
1  COc1ccc(C(=O)c2ccccc2-n2cc(O[C@@H]3O[C@H](CO)[C@H](O)[C@H](O)[C@H]3O)c3c(Cl)cccc32)c(OC)c1 [Indicator I26a]  C: Color of colonies (strength)             −
2  COC(=O)c1ccccc1-n1cc(O[C@@H]2O[C@H](CO)[C@H](O)[C@H](O)[C@H]2O)c2ccc(Cl)cc21 [Indicator I11a]  C: Color of colonies (strength)             −
3  COc1ccc(C(=O)c2ccccc2)c(-n2cc(O[C@@H]3O[C@H](CO)[C@H](O)[C@H](O)[C@H]3O)c3ccc(Cl)cc32)c1 [Indicator I24a]  C: Color of colonies (strength)             −

----------
tested on: Pseudomonas aeruginosa 168; assay: IO staining of colonies of beta-D-galactosidase positive/negative bacteria (Table IVb); format: cell-based; details: Pseudomonas aeruginosa strain 168, b-gal −; 24 h on Nutrient Agar, 150 mg/l indicator, 100 mg/l IPTG; footnote 1: blue autofluorescence
REPORTED PROPERTY: F: Fluorescence of colonies

> print(dat)
                                   molecule            reported.property  result.value
1  COc1ccc(C(=O)c2ccccc2-n2cc(O[C@@H]3O[C@H](CO)[C@H](O)[C@H](O)[C@H]3O)c3ccc(Cl)cc32)c(OC)c1 [Indicator I27a]  F: Fluorescence of colonies           +^1
2  Cn1cccc1C(=O)c1ccccc1-n1cc(O[C@@H]2O[C@H](CO)[C@H](O)[C@H](O)[C@H]2O)c2ccc(Cl)cc21 [Indicator I31a]  F: Fluorescence of colonies             −
3  COc1ccc(C(=O)c2ccccc2-n2cc(O[C@@H]3O[C@H](CO)[C@H](O)[C@H](O)[C@H]3O)c3c(Cl)c(Br)ccc32)c(OC)c1 [Indicator I28a]  F: Fluorescence of colonies           +^1

----------
test system: Escherichia coli (O157:H7) 60; assay: IO staining of colonies of beta-D-galactosidase positive/negative bacteria (Table IVb); assay type: cell-based; conditions: Escherichia coli (O157:H7) strain 60, b-gal +; 24 h on Nutrient Agar, 150 mg/l indicator, 100 mg/l IPTG
REPORTED PROPERTY: C: Color of colonies

# count of solved cases: 6
> print(dat)
                                   compound                    system.name  result.value
1  O=C(c1ccccc1)c1ccccc1-n1cc(O[C@@H]2O[C@H](CO)[C@H](O)[C@H](O)[C@H]2O)c2c(Cl)c(Br)ccc21 [Indicator I22a]  Escherichia coli (O157:H7) 60             +
2  COc1ccc(C(=O)c2ccccc2-n2cc(O[C@@H]3O[C@H](CO)[C@H](O)[C@H](O)[C@H]3O)c3ccccc32)c(OC)c1 [Indicator I25a]  Escherichia coli (O157:H7) 60            ++
3  COc1ccc(C(=O)c2ccccc2-n2cc(O[C@@H]3O[C@H](CO)[C@H](O)[C@H](O)[C@H]3O)c3ccc(Cl)cc32)c(OC)c1 [Indicator I27a]  Escherichia coli (O157:H7) 60            ++
4  CC(=O)c1ccccc1-n1cc(O[C@@H]2O[C@H](CO)[C@H](O)[C@H](O)[C@H]2O)c2ccc(Cl)cc21 [Indicator I16a]  Escherichia coli (O157:H7) 60             +
5  Cn1cccc1C(=O)c1ccccc1-n1cc(O[C@@H]2O[C@H](CO)[C@H](O)[C@H](O)[C@H]2O)c2ccc(Cl)cc21 [Indicator I31a]  Escherichia coli (O157:H7) 60             +
6  O=C(c1ccccc1)c1ccccc1-n1cc(O[C@@H]2O[C@H](CO)[C@H](O)[C@H](O)[C@H]2O)c2ccc(Cl)cc21 [Indicator I21a]  Escherichia coli (O157:H7) 60             +

Read the next record carefully.
Returns the measured C: Color of colonies for the input compound. Input: COc1ccc(C(=O)c2ccccc2-n2cc(O[C@@H]3O[C@H](CO)[C@H](O)[C@H](O)[C@H]3O)c3c(Cl)c(Br)ccc32)c(OC)c1 [Indicator I28a] +
